- Test name: Plasma pharmacokinetics of brensocatib in adults with CF, once-daily oral dosing for 28 days (noncompartmental analysis)
- Assay type: in vivo, human
- Experimental context: human, plasma, oral, 10 mg, 10 mg QD; Day 1; n = 8; mean (CV%); read-out: AUC0–24
Measured endpoint: AUC(0-t)
Include the unit right after the number.

Looking up `Cn1c(=O)oc2ccc(-c3ccc(C[C@@H](C#N)NC(=O)[C@@H]4CNCCCO4)cc3)cc21` , I found its AUC(0-t) recorded as 879 ng·h/mL

----------
- Test name: Plasma pharmacokinetics of brensocatib in adults with CF, once-daily oral dosing for 28 days (noncompartmental analysis)
- Type: in vivo, human
- Experimental context: human, plasma, oral; 25 mg QD; Day 28; n = 7; mean (CV%); read-out: t1/2 (converted)
Measured endpoint: half-life

// sample Cn1c(=O)oc2ccc(-c3ccc(C[C@@H](C#N)NC(=O)[C@@H]4CNCCCO4)cc3)cc21 [Brensocatib] , its half-life was 33.1 h

----------
- Test name: Plasma pharmacokinetics of brensocatib in adults with CF, once-daily oral dosing for 28 days (noncompartmental analysis)
- Format: in vivo, human
- Experimental context: human, plasma, oral, day 28; non-CFTR modulator stratum; 10-40 mg QD; read-out: mean AUC0–24 across brensocatib dose groups
Measured endpoint: AUC(0-t)

Per the records, this molecule ( `Cn1c(=O)oc2ccc(-c3ccc(C[C@@H](C#N)NC(=O)[C@@H]4CNCCCO4)cc3)cc21` ) has AUC(0-t) equal to 1190 to 3740 ng·h/mL

----------
- Test name: Plasma pharmacokinetics of brensocatib in adults with CF, once-daily oral dosing for 28 days (noncompartmental analysis)
- Type: in vivo, human
- Experimental context: human, plasma, oral, 25 mg, 25 mg QD; Day 1; n = 8; mean (CV%); read-out: AUC0–24
Measured endpoint: AUC(0-t) (ng·h/mL)
Record the value in ng·h/mL, omitting the unit from your answer.

Field AUC(0-t) (entry `Cn1c(=O)oc2ccc(-c3ccc(C[C@@H](C#N)NC(=O)[C@@H]4CNCCCO4)cc3)cc21` ) reads 1630

----------
- Test name: Plasma pharmacokinetics of brensocatib in adults with CF, once-daily oral dosing for 28 days (noncompartmental analysis)
- Type: in vivo, human
- Experimental context: human, plasma, oral, day 1; non-CFTR modulator stratum; 10-40 mg QD; read-out: mean Cmax across brensocatib dose groups
Measured endpoint: Cmax

Sample Cn1c(=O)oc2ccc(-c3ccc(C[C@@H](C#N)NC(=O)[C@@H]4CNCCCO4)cc3)cc21 [Brensocatib] ; Cmax observed: 0.0864 to 0.274 µg/mL

----------
- Test name: Plasma pharmacokinetics of brensocatib in adults with CF, once-daily oral dosing for 28 days (noncompartmental analysis)
- Assay type: in vivo, human
- Experimental context: human, plasma, oral, 40 mg, 40 mg QD; Day 28; n = 8; mean (CV%); read-out: AUClast
Measured endpoint: AUC(0-t) (ng·h/mL)
Field: numeric (ng·h/mL). Do not append units.

The reported AUC(0-t) of the compound Cn1c(=O)oc2ccc(-c3ccc(C[C@@H](C#N)NC(=O)[C@@H]4CNCCCO4)cc3)cc21 [Brensocatib] was 15300

----------
- Test name: Plasma pharmacokinetics of brensocatib in adults with CF, once-daily oral dosing for 28 days (noncompartmental analysis)
- Type: in vivo, human
- Experimental context: human, plasma, oral; 10 mg QD; Day 28; n = 8; median (range); read-out: Tmax
Measured endpoint: Tmax (h)
Provide only the numeric value, understood in h.

According to the records, this compound Cn1c(=O)oc2ccc(-c3ccc(C[C@@H](C#N)NC(=O)[C@@H]4CNCCCO4)cc3)cc21 [Brensocatib] displays Tmax of 1.9

----------
- Test name: Plasma pharmacokinetics of brensocatib in adults with CF, once-daily oral dosing for 28 days (noncompartmental analysis)
- Assay type: in vivo, human
- Experimental context: human, plasma, oral; 40 mg QD; Day 28; n = 8; mean (CV%); read-out: t1/2 (converted)
- Description: This was a phase IIa, single-blind, randomized, placebo-controlled trial with a parallel-group, multiple-dose design aimed at evaluating the PK, PD, safety, and tolerability of brensocatib in adults with CF (NCT05090904). […] Descriptive statistics for continuous variables were calculated. […] Changes from baseline values were calculated and presented for both safety and efficacy data at each visit, including the percent change from baseline. […]
Measured endpoint: half-life (h)
Reply numerically in h, unit not repeated.

Per the record, Cn1c(=O)oc2ccc(-c3ccc(C[C@@H](C#N)NC(=O)[C@@H]4CNCCCO4)cc3)cc21 [Brensocatib] has half-life of 38.5

----------
- Test name: Plasma pharmacokinetics of brensocatib in adults with CF, once-daily oral dosing for 28 days (noncompartmental analysis)
- Type: in vivo, human
- Experimental context: human, plasma, oral, 25 mg, 25 mg QD; Day 28; n = 7; mean (CV%); read-out: AUC0–24
Measured endpoint: AUC(0-t) (ng·h/mL)
Please reply with the bare figure in ng·h/mL and do not write the unit itself.

Notebook: Cn1c(=O)oc2ccc(-c3ccc(C[C@@H](C#N)NC(=O)[C@@H]4CNCCCO4)cc3)cc21 [Brensocatib] , AUC(0-t) read as 3800

----------
- Test name: Plasma pharmacokinetics of brensocatib in adults with CF, once-daily oral dosing for 28 days (noncompartmental analysis)
- Format: in vivo, human
- Experimental context: human, plasma, oral; 40 mg QD; Day 28; n = 8; mean (CV%)
Measured endpoint: Vd/F
For clarity, give the value followed by its unit.

// Vd/F value for `Cn1c(=O)oc2ccc(-c3ccc(C[C@@H](C#N)NC(=O)[C@@H]4CNCCCO4)cc3)cc21` : 398 L

----------
- Test name: Plasma pharmacokinetics of brensocatib in adults with CF, once-daily oral dosing for 28 days (noncompartmental analysis)
- Type: in vivo, human
- Experimental context: human, plasma, oral; 10 mg QD; Day 28; n = 8; mean (CV%)
Measured endpoint: Vd/F (L)
Could you give me the number in L? Just the number is fine.

Please fill in: Vd/F reported for `Cn1c(=O)oc2ccc(-c3ccc(C[C@@H](C#N)NC(=O)[C@@H]4CNCCCO4)cc3)cc21` = 423

----------
- Test name: Plasma pharmacokinetics of brensocatib in adults with CF, once-daily oral dosing for 28 days (noncompartmental analysis)
- Assay type: in vivo, human
- Experimental context: human, plasma, oral, 40 mg, 40 mg QD; Day 28; n = 8; mean (CV%); read-out: AUC0–24
Measured endpoint: AUC(0-t) (ng·h/mL)
The figure you give is taken to be in ng·h/mL; do not add the unit.

Note to self: AUC(0-t) recorded for `Cn1c(=O)oc2ccc(-c3ccc(C[C@@H](C#N)NC(=O)[C@@H]4CNCCCO4)cc3)cc21` was 6320

----------
- Test name: Plasma pharmacokinetics of brensocatib in adults with CF, once-daily oral dosing for 28 days (noncompartmental analysis)
- Type: in vivo, human
- Experimental context: human, plasma, oral; 25 mg QD; Day 28; n = 7; mean (CV%)
Measured endpoint: AUC(0-inf) (ng·h/mL)
Answer format: numeric, ng·h/mL implied, no suffix.

The measured AUC(0-inf) associated with `Cn1c(=O)oc2ccc(-c3ccc(C[C@@H](C#N)NC(=O)[C@@H]4CNCCCO4)cc3)cc21` reads 9300

----------
- Test name: Plasma pharmacokinetics of brensocatib in adults with CF, once-daily oral dosing for 28 days (noncompartmental analysis)
- Assay type: in vivo, human
- Experimental context: human, plasma, oral, day 1; non-CFTR modulator stratum; 10-40 mg QD; read-out: mean AUClast across brensocatib dose groups
Measured endpoint: AUC(0-t)

// sample `Cn1c(=O)oc2ccc(-c3ccc(C[C@@H](C#N)NC(=O)[C@@H]4CNCCCO4)cc3)cc21` , its AUC(0-t) was 1120 to 2400 ng·h/mL

----------
- Test name: Plasma pharmacokinetics of brensocatib in adults with CF, once-daily oral dosing for 28 days (noncompartmental analysis)
- Type: in vivo, human
- Experimental context: human, plasma, oral, 40 mg, 40 mg QD; Day 1; n = 8; mean (CV%); read-out: AUC0–24
Measured endpoint: AUC(0-t) (ng·h/mL)
Please give a number only; it is taken to be in ng·h/mL.

Form: compound = `Cn1c(=O)oc2ccc(-c3ccc(C[C@@H](C#N)NC(=O)[C@@H]4CNCCCO4)cc3)cc21` ; AUC(0-t) = 3690

----------
- Test name: Plasma pharmacokinetics of brensocatib in adults with CF, once-daily oral dosing for 28 days (noncompartmental analysis)
- Assay type: in vivo, human
- Experimental context: human, plasma, oral, day 28; CFTR modulator stratum; 10-40 mg QD; read-out: mean AUC0–24 across brensocatib dose groups
- Protocol: This was a phase IIa, single-blind, randomized, placebo-controlled trial with a parallel-group, multiple-dose design aimed at evaluating the PK, PD, safety, and tolerability of brensocatib in adults with CF (NCT05090904). […] Descriptive statistics for continuous variables were calculated. […] Changes from baseline values were calculated and presented for both safety and efficacy data at each visit, including the percent change from baseline. […]
Measured endpoint: AUC(0-t)

Short answer for Cn1c(=O)oc2ccc(-c3ccc(C[C@@H](C#N)NC(=O)[C@@H]4CNCCCO4)cc3)cc21 [Brensocatib] : AUC(0-t) was 1080 to 7360 ng·h/mL
